FYI, the data here is from patent US12428443B2.

Tested on: LNCAP clone FGC
Experiment: CellTiter-Glo chemiluminescent cell viability assay (CTG method), LNCAP
Type: cell-based
Details: LNCAP cells, 72 h, read-out: Absolute IC50
pIC50: −log10 of the molar value.

compound | pIC50
N.N.[Cl][Pt][Cl] [Cisplatin] | 4.89

====

Assay: Comparative study of pharmacokinetic properties in Beagle dogs (oral)
Assay type: in vivo
Settings: Beagle, dog, in vivo, po, 46.8 mg/kg
attribute-measured: half-life

item-smiles | measured-result
CN(C)CCOCCOC(=O)O[C@H]1CC[C@@]2(C)C(=CC[C@@H]3[C@@H]2CC[C@]2(C)C(c4cccnc4)=CC[C@@H]32)C1 | 6.8 h
